The reported measurements were obtained from patent US20260356817A1.

Test system: Myc
Experiment: Myc inhibition assay: Myc expression per cell by anti-Myc immunofluorescence, high-content imaging
Format: cell-based, human (patient-derived medulloblastoma xenograft cells)
Conditions: Table 1; medulloblastoma PDX cells, 4 h; read-out: IC50 (Myc inhibition)
Method: To identify Myc inhibitors, cells isolated from patient-derived orthotopic xenografts (PDXs) from patients with Myc-driven medulloblastoma were used. […] Cells were then analyzed using high-content imaging to determine the levels of Myc expression per cell and IC50 values of the compounds.
quantity measured: IC50

Prompt line: Please give the documented IC50 of COc1ccnc(-c2ccnc(Nc3ccccc3)n2)c1 [Compound 217]
Response line: 10000 to 100000 nM

Prompt line: Please give the documented IC50 of COc1cccc(Nc2nccc(-c3cccc(OC)c3)n2)c1 [Compound 250]
Response line: 1000 to 10000 nM

Prompt line: Please give the documented IC50 of c1cc(-c2ccc3[nH]cnc3c2)nc(Nc2ccc3cn[nH]c3c2)n1 [Compound 268]
Response line: 200 to 1000 nM

Prompt line: Please give the documented IC50 of Nc1cccc(Nc2nccc(-c3ccc4nc[nH]c4c3)n2)c1 [Compound 275]
Response line: < 200 nM

Prompt line: Please give the documented IC50 of Oc1cncc(-c2ccnc(Nc3ccccc3)n2)c1 [Compound 219]
Response line: 1000 to 10000 nM

---

Tested on: Myc
Experiment: Myc inhibition assay: Myc expression per cell by anti-Myc immunofluorescence, high-content imaging
Type: cell-based, human (patient-derived medulloblastoma xenograft cells)
Conditions: Table 1; medulloblastoma PDX cells, 4 h; read-out: IC50 (Myc inhibition)
Procedure: To identify Myc inhibitors, cells isolated from patient-derived orthotopic xenografts (PDXs) from patients with Myc-driven medulloblastoma were used. […] Cells were then analyzed using high-content imaging to determine the levels of Myc expression per cell and IC50 values of the compounds.
quantity measured: IC50

# annotated cases, reported IC50 shown
{"test smiles": "COc1ccc(Oc2ccnc(Nc3cccc(C(F)(F)F)c3)n2)cn1", "test system": "Myc", "data value": "1 to 10 µM"}
{"test smiles": "Cc1cc(Nc2nccc(-c3ccc4[nH]cnc4c3)n2)ccc1F", "test system": "Myc", "data value": "0.2 to 1 µM"}
{"test smiles": "COc1cc(-c2ccnc(Nc3ccccc3)n2)ncn1", "test system": "Myc", "data value": "10 to 100 µM"}
{"test smiles": "Cc1cnc(Nc2cccc(C(F)(F)F)c2)nc1-c1cnc2nc[nH]c2c1", "test system": "Myc", "data value": "1 to 10 µM"}
{"test smiles": "COc1ccccc1Nc1nccc(-c2ccc3[nH]cnc3c2)n1", "test system": "Myc", "data value": "1 to 10 µM"}

Now turn to the next compound.
Prompt line: Please give the documented IC50 of `O=C(NC1CC1)c1cccc(Nc2nccc(-c3ccc4[nH]cnc4c3)n2)c1`
Response line: 0.2 to 1 µM

---

system: Myc; experiment: Myc inhibition assay: Myc expression per cell by anti-Myc immunofluorescence, high-content imaging; assay type: cell-based, human (patient-derived medulloblastoma xenograft cells); details: Table 1; medulloblastoma PDX cells, 4 h; read-out: IC50 (Myc inhibition)
Recorded IC50, one value per entry.

Prompt line: Please indicate recorded IC50 of `N#Cc1cccc(Nc2nccc(-c3ccc4[nH]cnc4c3)n2)c1` measured with Myc.
Response line: 1 to 10 µM

Prompt line: Please indicate recorded IC50 of `Oc1cccc(-c2ccnc(Nc3cccc(C(F)(F)F)c3)n2)c1` measured with Myc.
Response line: 10 to 100 µM

Prompt line: Please indicate recorded IC50 of `Oc1cc(-c2ccnc(Sc3ccccc3)n2)ccn1` measured with Myc.
Response line: 10 to 100 µM

Prompt line: Please indicate recorded IC50 of `CC(C)c1nnc(Nc2nccc(-c3ccc4[nH]cnc4c3)n2)[nH]1` measured with Myc.
Response line: 1 to 10 µM

Prompt line: Please indicate recorded IC50 of `Oc1ncc(-c2ccnc(Nc3cccc(C(F)(F)F)c3)n2)s1` measured with Myc.
Response line: 0.2 to 1 µM
